target: BRAF^V600E protein (Homo sapiens, UniProt P15056, V600E); experiment: HiBiT cellular BRAF V600E degradation assay; assay type: cell-based; conditions: A375.10 cells (HiBiT tag knocked in at N-terminal of BRAF V600E), 24 h incubation; concentration at which 50% of total cellular BRAF V600E is degraded
Sequence (P15056 whole entry V600E): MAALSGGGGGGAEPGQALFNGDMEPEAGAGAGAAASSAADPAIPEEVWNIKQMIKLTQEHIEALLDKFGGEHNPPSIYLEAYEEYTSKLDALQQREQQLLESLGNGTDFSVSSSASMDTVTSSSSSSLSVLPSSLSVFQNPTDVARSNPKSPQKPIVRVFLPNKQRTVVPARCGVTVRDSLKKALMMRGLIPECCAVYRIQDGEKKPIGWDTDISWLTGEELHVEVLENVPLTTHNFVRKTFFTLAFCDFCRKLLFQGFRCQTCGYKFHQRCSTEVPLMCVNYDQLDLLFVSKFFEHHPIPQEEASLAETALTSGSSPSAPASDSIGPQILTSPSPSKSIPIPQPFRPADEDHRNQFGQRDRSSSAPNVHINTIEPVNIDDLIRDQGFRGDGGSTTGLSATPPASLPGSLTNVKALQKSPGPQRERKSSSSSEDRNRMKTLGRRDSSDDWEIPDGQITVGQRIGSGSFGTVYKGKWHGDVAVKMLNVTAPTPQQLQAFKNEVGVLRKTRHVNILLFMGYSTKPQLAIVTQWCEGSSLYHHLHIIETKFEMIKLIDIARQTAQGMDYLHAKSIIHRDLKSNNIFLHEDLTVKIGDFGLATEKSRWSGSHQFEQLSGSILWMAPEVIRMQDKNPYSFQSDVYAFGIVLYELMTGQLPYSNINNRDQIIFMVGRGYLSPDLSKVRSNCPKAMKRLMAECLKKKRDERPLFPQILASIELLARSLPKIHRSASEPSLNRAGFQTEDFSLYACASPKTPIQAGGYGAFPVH
Structures can show the parent of a compound that is named as a salt.

molecule | DC50, nM
O=C1CCC(Nc2ccc(C3CCN(CCCC(=O)N4CC(c5ccc(-c6cnc7[nH]cc(C(=O)c8c(F)ccc(NS(=O)(=O)N9CCCC9)c8F)c7c6)cc5)C4)CC3)cc2)C(=O)N1 (stereo not shown) | 73
CCN(C)S(=O)(=O)Nc1ccc(F)c(C(=O)c2c[nH]c3ncc(-c4cnc(N5CCN(C(=O)CN6CCC(c7c(F)cc(OC8CCC(=O)NC8=O)cc7F)CC6)CC5)nc4)cc23)c1F (stereo not shown) | 24.5
CCN(C)S(=O)(=O)Nc1ccc(F)c(C(=O)c2c[nH]c3ncc(-c4cnc(N5CCN(C(=O)CC6(O)CCN(c7ccc(NC8CCC(=O)NC8=O)cc7)CC6)CC5)nc4)cc23)c1F (stereo not shown) | 4.44
CC(C)S(=O)(=O)Nc1ccc(F)c(C(=O)c2c[nH]c3ncc(-c4cnc(N5CCN(C(=O)CN6CCC(c7ccc(C8CCC(=O)NC8=O)cc7)CC6)CC5)nc4)cc23)c1F (stereo not shown) | 4.67
O=C1CCC(Nc2ccc(C3CCN(CC(=O)N4CCN(c5ccc(-c6cnc7[nH]cc(C(=O)c8c(F)ccc(NS(=O)(=O)C9CCCC9)c8F)c7c6)cc5)CC4)CC3)cc2)C(=O)N1 (stereo not shown) | 10
CCN(C)S(=O)(=O)Nc1ccc(F)c(C(=O)c2c[nH]c3ncc(-c4ccc(N5CCC(N(C)C(=O)CN6CCC(c7ccc(NC8CCC(=O)NC8=O)cn7)CC6)CC5)nc4)cc23)c1F (stereo not shown) [Example A95, hydrochloride] | 11
CCN(C)S(=O)(=O)Nc1cccc(C(=O)c2c[nH]c3ncc(-c4ccc(N5CCN(C(=O)CC6(O)CCN(c7ccc(NC8CCC(=O)NC8=O)cc7Cl)CC6)CC5)nc4)cc23)c1F (stereo not shown) | 6.82
CCN(C)S(=O)(=O)Nc1ccc(F)c(C(=O)c2c[nH]c3ncc(-c4cnc(N5CCN(C(=O)C(C)(C)N6CCC(c7ccc(NC8CCC(=O)NC8=O)cc7)CC6)CC5)nc4)cc23)c1F (stereo not shown) | 97
CCN(C)S(=O)(=O)Nc1cccc(C(=O)c2c[nH]c3ncc(-c4cnc(N5CCN(C(=O)CC6(O)CCN(c7ccc(NC8CCC(=O)NC8=O)cc7F)CC6)CC5)nc4)cc23)c1F (stereo not shown) | 3.38
CCN(C)S(=O)(=O)Nc1ccc(F)c(C(=O)c2c[nH]c3ncc(-c4cnc(N5CCN(C(=O)CC6CCN(c7ccc(NC8CCC(=O)NC8=O)cc7F)C6)CC5)nc4)cc23)c1F (stereo not shown) | 23
CCN(C)S(=O)(=O)Nc1ccc(F)c(C(=O)c2c[nH]c3ncc(-c4ccc(N5CCC(NCC(=O)N6CCC(c7ccc(OC8CCC(=O)NC8=O)cc7)CC6)CC5)cc4)cc23)c1F (stereo not shown) [Example A99, hydrochloride] | 32
CCN(C)S(=O)(=O)Nc1ccc(F)c(C(=O)c2c[nH]c3ncc(-c4cnc(N5CC6(CC(N7CCC(c8ccc(NC9CCC(=O)NC9=O)cc8)CC7)C6)C5)nc4)cc23)c1F (stereo not shown) | 1.85
CCN(C)S(=O)(=O)Nc1ccc(F)c(C(=O)c2c[nH]c3ncc(-c4ccc(N5CCN(C(=O)CC6(O)CCN(c7ccc(NC8CCC(=O)NC8=O)cc7F)CC6)CC5)c(F)c4)cc23)c1F (stereo not shown) | 2.42
CCN(C)S(=O)(=O)Nc1ccc(F)c(C(=O)c2c[nH]c3ncc(-c4ccc(N5CCN(CCN6CCC(c7ccc(OC8CCC(=O)NC8=O)cc7)CC6)CC5)nc4)cc23)c1F (stereo not shown) | 16.1
CCN(C)S(=O)(=O)Nc1ccc(F)c(C(=O)c2c[nH]c3ncc(-c4cc(F)c(N5CCN(C(=O)CC6(O)CCN(c7ccc(NC8CCC(=O)NC8=O)cc7F)CC6)CC5)c(F)c4)cc23)c1F (stereo not shown) | 6.23
CCN(C)S(=O)(=O)Nc1cccc(C(=O)c2c[nH]c3ncc(-c4ccc(N5CCN(C(=O)CC6(O)CCN(c7ccc(NC8CCC(=O)NC8=O)cc7)CC6)CC5)cc4)cc23)c1F (stereo not shown) | 5.32
O=C1CCC(c2ccc(C3CCN(CC(=O)N4CC5(C4)CN(c4ncc(-c6cnc7[nH]cc(C(=O)c8c(F)ccc(NS(=O)(=O)N9CCCC9)c8F)c7c6)cn4)C5)CC3)cc2)C(=O)N1 (stereo not shown) | 29
CCN(C)S(=O)(=O)Nc1cccc(C(=O)c2c[nH]c3ncc(-c4ccc(N5CCN(C(=O)CN6CCC(c7ccc(NC8CCC(=O)NC8=O)cc7)C(F)(F)C6)CC5)nc4)cc23)c1F (stereo not shown) | 4.47
CCN(C)S(=O)(=O)Nc1ccc(F)c(C(=O)c2c[nH]c3ncc(-c4ccc(N5CCN(C(=O)CC6(O)CCN(c7ccc(N[C@H]8CCC(=O)NC8=O)cc7F)CC6)CC5)nc4)cc23)c1F | 5.84

From: patent US12559492B2
